Reported AC50, Melanocortin receptor 3 (Homo sapiens, UniProt P41968).
MEASUREMENT KIND: AC50

- C[C@H]1c2cccc(O)c2C(=O)C2=C(O)[C@]3(O)C(=O)C(C(N)=O)=C(O)[C@@H](N(C)C)[C@@H]3[C@@H](O)[C@@H]21: > 30 µM
- Cn1c(=O)cc(N2CCC[C@@H](N)C2)n(Cc2ccccc2C#N)c1=O: > 30 µM
- C=CCNc1nc(NCC=C)nc(N2CCN(C(c3ccc(F)cc3)c3ccc(F)cc3)CC2)n1: > 30 µM
- CC(=O)[C@@]1(O)CC[C@H]2[C@@H]3C=C(Cl)C4=CC(=O)[C@@H]5C[C@@H]5[C@]4(C)[C@H]3CC[C@@]21C: > 10 µM
- Cc1noc(NS(=O)(=O)c2ccc(N)cc2)c1C: > 10 µM
- CN1C[C@H](C(=O)N[C@]2(C)O[C@@]3(O)[C@@H]4CCCN4C(=O)[C@H](Cc4ccccc4)N3C2=O)C=C2c3cccc4[nH]cc(c34)C[C@H]21: > 30 µM
- C[C@]12CCC(=O)C(O)=C1CC[C@@H]1[C@@H]2CC[C@]2(C)C(=O)CC[C@@H]12: > 30 µM
- O=C(O)c1cn(C2CC2)c2cc(N3CCNCC3)c(F)cc2c1=O: > 30 µM
- C=C[C@@]1(C)CC(=O)[C@]2(O)[C@@]3(C)[C@@H](O)CCC(C)(C)[C@@H]3[C@H](O)[C@H](OC(C)=O)[C@@]2(C)O1: > 30 µM
- O=C(O)CCNC(=O)c1ccccc1: > 30 µM
- CCN(CC)C(=O)Nc1ccc(OCC(O)CNC(C)(C)C)c(C(C)=O)c1 (stereo not given): > 30 µM
- Oc1ccc2c(c1)[C@@]13CCCC[C@@]1(O)[C@@H](C2)N(CC1CCC1)CC3: > 30 µM
- NC(=O)CN1CCCC1=O: > 30 µM
- CC(=O)OCC(=O)[C@@]1(O)[C@H](C)C[C@H]2[C@@H]3CCC4=CC(=O)C=C[C@]4(C)[C@@]3(F)[C@@H](O)C[C@@]21C [DEXAMETHASONE ACETATE]: > 30 µM
- CCOC(=O)c1cncn1[C@H](C)c1ccccc1 [ETOMIDATE]: > 10 µM
- O=C1CN=C(c2ccccn2)c2cc(Br)ccc2N1: > 10 µM
- Cc1ncc2n1-c1ccc(Cl)cc1C(c1ccccc1F)=NC2: > 30 µM
- OC[C@H]1O[C@@](CO)(O[C@H]2O[C@H](CO)[C@@H](O)[C@H](O)[C@H]2O)[C@@H](O)[C@@H]1O: > 30 µM
- COc1cc2c(cc1OC)C(CCc1ccc(Cl)cc1)N(C)CC2 (stereo not given): > 30 µM
- COc1ccccc1OCCNCC(O)COc1cccc2[nH]c3ccccc3c12 (stereo not given): 28.8 µM
- COc1ccc(-c2noc(CC(=O)O)c2-c2ccc(OC)cc2)cc1: > 30 µM
- CCC(=O)O[C@]1(C(=O)SCF)[C@H](C)C[C@H]2[C@@H]3C[C@H](F)C4=CC(=O)C=C[C@]4(C)[C@@]3(F)[C@@H](O)C[C@@]21C [FLUTICASONE PROPIONATE]: > 30 µM
- CCCN(CCC)C(=O)Cc1c(-c2ccc(Cl)cc2)nc2ccc(Cl)cn12: > 30 µM
- CCN(CC)CCN1C(=O)CN=C(c2ccccc2F)c2cc(Cl)ccc21: > 30 µM
- CN1CCC(=C2c3ccccc3CCc3cccnc32)CC1: > 30 µM
- C[C@H](Cc1ccc(O)c(O)c1)[C@@H](C)Cc1ccc(O)c(O)c1: > 30 µM
- CC(C)(C)NCC(O)c1cc(O)cc(O)c1 (stereo not given): > 30 µM
- C[C@@H](NCCCc1cccc(C(F)(F)F)c1)c1cccc2ccccc12: 13 µM
- O=C(O)c1ccccc1Nc1cc(Cl)ccc1C(=O)O: > 30 µM
- CCCC(CCC)C(=O)O: > 30 µM
- CC(S)C(=O)NCC(=O)O (stereo not given): > 30 µM
- CC(N)C12CC3CC(CC(C3)C1)C2 (stereo not given): > 10 µM
- CCCCCCCCCCCCCCCCCCCCCC(=O)Nc1ccn([C@@H]2O[C@H](CO)[C@@H](O)[C@@H]2O)c(=O)n1: > 30 µM
- CN1C(C(=O)Nc2ccccn2)=C(O)c2ccccc2S1(=O)=O: > 10 µM
- COc1cc2nccc(Oc3ccc(NC(=O)C4(C(=O)Nc5ccc(F)cc5)CC4)cc3)c2cc1OC [CABOZANTINIB]: > 30 µM
